# Test system: HCC-2998 colon
# assay remarks: NCI-60 one-dose screen, 48 h (100 = growth as untreated, 0 = no growth, -100 = all killed)
# experimental setup: 10 µM unless noted
Compounds without any hit were thinned out: in the full panel of roughly 83,000, 20% have a hit. The source made the active and inactive calls. The calls were made as follows: active = growth percent below 10; inactive = the rest.
Each entry below lists one item and its recorded growth value.

Observe how each entry below is paired with its result.
# compound, system, metric, endpoint result
data = [
    ("CCCCCCCCCCCCCCCC[N+]1(C)CCN(SN2CC[N+](C)(CCCCCCCCCCCCCCCC)CC2)CC1", "HCC-2998 colon", "growth", "70% (inactive)"),
    ("Nc1c(S(=O)(=O)O)cc2c3c(cccc13)C(=O)OC2=O", "HCC-2998 colon", "growth", "102% (inactive)"),
    ("Cc1ccc(CNc2c3ccccc3nc3cc(NC(=O)CCN4CCCC4)ccc23)cc1", "HCC-2998 colon", "growth", "-15.8% (active)"),
    ("NC1[C@H](c2c[nH]c3ccccc23)c2c([nH]c3ccccc23)[C@H]1c1c[nH]c2ccccc12 (stereo partly drawn)", "HCC-2998 colon", "growth", "97.3% (inactive)"),
]

Lookup result for CC(=O)[C@H]1CCC/C=C/[C@@H]2C[C@H](O)C[C@H]2[C@H](O)/C=C/C(=O)O1 ; measured growth: -23.3% (active)

Lookup result for CN1CCN(C(=O)[C@]23CCC(C)(C)C[C@H]2C2=CC[C@@H]4[C@@]5(C)C/C(=C/c6cccnc6)C(=O)C(C)(C)[C@@H]5CC[C@@]4(C)[C@]2(C)CC3)CC1 ; measured growth: 66.6% (inactive)

Lookup result for O=C(O)c1ccc(-c2nn(-c3ccc(C(F)(F)F)cc3)cc2CNc2ccc(Oc3ccccc3)cc2)cc1 ; measured growth: 115% (inactive)

Lookup result for Cc1ccc(-c2nc3ccccn3c2/C=C2/C(=O)Nc3cc(Cl)ccc32)cc1 ; measured growth: 92.2% (inactive)
